Source listed as ChEMBL document CHEMBL4417624.

Target: c-Myc/Max (Homo sapiens) (UniProt P01106+P61244)
Sequence (P01106 whole entry, the tested form may be a part): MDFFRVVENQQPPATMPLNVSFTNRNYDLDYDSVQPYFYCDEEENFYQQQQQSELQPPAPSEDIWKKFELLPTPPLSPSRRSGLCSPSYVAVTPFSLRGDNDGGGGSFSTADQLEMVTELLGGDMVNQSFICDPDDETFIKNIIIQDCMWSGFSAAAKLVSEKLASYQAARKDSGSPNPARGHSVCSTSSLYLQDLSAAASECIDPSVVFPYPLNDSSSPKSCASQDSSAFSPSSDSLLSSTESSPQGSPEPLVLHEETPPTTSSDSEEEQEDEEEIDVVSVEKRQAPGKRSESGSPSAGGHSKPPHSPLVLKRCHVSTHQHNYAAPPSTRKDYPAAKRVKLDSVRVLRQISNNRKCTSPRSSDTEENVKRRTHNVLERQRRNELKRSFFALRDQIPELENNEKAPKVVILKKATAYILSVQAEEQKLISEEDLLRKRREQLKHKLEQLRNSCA
Test: Inhibition of dimerization of human MYC bHLH-LZ domain/MAX bHLH-LZ domain expressed in Escherichia coli in presence of Alexa Fluor 594-tagged E-box duplex DNA by fluorescence polarization assay
Calls of active or inactive are those of the source. The calls are words filed in the database; no cut-off is given here.
Labels: T for active, F for inactive

INSERT INTO assay_data (substance_smiles, qualitative_label) VALUES
  ('NC(=O)c1ccc(-c2cc(-c3ccc(SC(F)(F)F)cc3)nc(-c3ccco3)c2)cc1', 'F'),
  ('NC(=O)c1ccc(-c2cc(-c3ccc([N+](=O)[O-])cc3)nc(-c3ccco3)c2)cc1', 'T'),
  ('COC(=O)c1cccc(-c2cc(-c3ccc(C(N)=O)cc3)cc(-c3ccco3)n2)c1', 'T'),
  ('NC(=O)c1ccc(-c2cc(-c3ccc(OC(F)(F)F)cc3)nc(-c3ccco3)c2)cc1', 'T'),
  ('NC(=O)c1ccc(-c2cc(-c3ccc([N+](=O)[O-])cc3)nc(-c3ccccc3Br)c2)cc1', 'F');

* * *

Target: Myc proto-oncogene protein (Homo sapiens)
Experiment: Inhibition of human ATG-Myc expressed in chicken embryo fibroblasts assessed as reduction in Myc-induced oncogenic transformation by measuring efficiency of oncogenic transformation
The source made the active and inactive calls. No cut-off for these calls is given here.
ENDPOINT NAME: inhibition

INSERT INTO results (substance_smiles, experimental_value) VALUES
  ('N#Cc1ccc(-c2cc(-c3ccc(C(N)=O)cc3)cc(-c3ccco3)n2)cc1', 'Active'),
  ('COC(=O)c1cccc(-c2cc(-c3ccc(C(N)=O)cc3)cc(-c3ccco3)n2)c1', 'Active'),
  ('CN1CCN(c2ccc(-c3cc(-c4ccc(C(N)=O)cc4)cc(-c4ccc([N+](=O)[O-])cc4)n3)cc2)CC1', 'Active');

* * *

Target: Myc proto-oncogene protein (Homo sapiens)
Assay: Inhibition of human ATG-Myc expressed in chicken embryo fibroblasts assessed as reduction in Myc-induced oncogenic transformation by measuring efficiency of oncogenic transformation at 10 uM
The source made the active and inactive calls. No cut-off for these calls is given here.
ENDPOINT NAME: inhibition

INSERT INTO measurements (substance_smiles, test_system, endpoint_name, experimental_value) VALUES
  ('NC(=O)c1ccc(-c2cc(-c3ccc(Br)cc3)nc(-c3ccc([N+](=O)[O-])cc3)c2)cc1', 'Myc proto-oncogene protein (Homo sapiens)', 'inhibition', 'inactive'),
  ('NC(=O)c1ccc(-c2cc(-c3ccc([N+](=O)[O-])cc3)nc(-c3ccco3)c2)cc1', 'Myc proto-oncogene protein (Homo sapiens)', 'inhibition', '100%'),
  ('NC(=O)c1ccc(-c2cc(-c3ccc(OC(F)(F)F)cc3)nc(-c3ccco3)c2)cc1', 'Myc proto-oncogene protein (Homo sapiens)', 'inhibition', 'Active'),
  ('COC(=O)c1ccc(-c2cc(-c3ccc(C(N)=O)cc3)cc(-c3ccco3)n2)cc1', 'Myc proto-oncogene protein (Homo sapiens)', 'inhibition', 'inactive'),
  ('NC(=O)c1ccc(-c2cc(-c3ccc(SC(F)(F)F)cc3)nc(-c3ccco3)c2)cc1', 'Myc proto-oncogene protein (Homo sapiens)', 'inhibition', 'inactive'),
  ('NC(=O)c1ccc(-c2cc(-c3ccc([N+](=O)[O-])cc3)nc(-c3cccc(Br)n3)c2)cc1', 'Myc proto-oncogene protein (Homo sapiens)', 'inhibition', 'inactive'),
  ('NC(=O)c1ccc(-c2cc(-c3ccc([N+](=O)[O-])cc3)nc(-c3ccco3)c2)o1', 'Myc proto-oncogene protein (Homo sapiens)', 'inhibition', 'Active'),
  ('NC(=O)c1ccc(-c2cc(-c3ccc([N+](=O)[O-])cc3)nc(-c3ccccn3)c2)cc1', 'Myc proto-oncogene protein (Homo sapiens)', 'inhibition', 'inactive'),
  ('NC(=O)c1ccc(-c2cc(-c3ccc([N+](=O)[O-])cc3)nc(-c3ccc(Br)cn3)c2)cc1', 'Myc proto-oncogene protein (Homo sapiens)', 'inhibition', 'inactive'),
  ('NC(=O)c1ccc(-c2cc(-c3ccncc3)nc(-c3ccc([N+](=O)[O-])cc3)c2)cc1', 'Myc proto-oncogene protein (Homo sapiens)', 'inhibition', '100%'),
  ('CS(=O)(=O)c1ccc(-c2cc(-c3ccc(C(N)=O)cc3)cc(-c3ccco3)n2)cc1', 'Myc proto-oncogene protein (Homo sapiens)', 'inhibition', 'inactive'),
  ('COC(=O)c1cccc(-c2cc(-c3ccc(C(N)=O)cc3)cc(-c3ccco3)n2)c1', 'Myc proto-oncogene protein (Homo sapiens)', 'inhibition', '100%'),
  ('NC(=O)c1ccc(-c2cc(-c3ccc(C(F)(F)F)cc3)nc(-c3ccco3)c2)cc1', 'Myc proto-oncogene protein (Homo sapiens)', 'inhibition', 'Active'),
  ('NC(=O)c1ccc(-c2cc(-c3ccc([N+](=O)[O-])cc3)nc(-c3ccccc3Br)c2)cc1', 'Myc proto-oncogene protein (Homo sapiens)', 'inhibition', 'inactive'),
  ('N#Cc1ccc(-c2cc(-c3ccc(C(N)=O)cc3)cc(-c3ccco3)n2)cc1', 'Myc proto-oncogene protein (Homo sapiens)', 'inhibition', '100%');
